Hey, just so you know, these numbers are from patent US20170081417A1.

Target: T1, human OX40 (CD134), full length, expressed on cells (activated human T cells); EL4-OX40 and CHO-OX40 … (human, UniProt P43489 29-277)
T1 sequence: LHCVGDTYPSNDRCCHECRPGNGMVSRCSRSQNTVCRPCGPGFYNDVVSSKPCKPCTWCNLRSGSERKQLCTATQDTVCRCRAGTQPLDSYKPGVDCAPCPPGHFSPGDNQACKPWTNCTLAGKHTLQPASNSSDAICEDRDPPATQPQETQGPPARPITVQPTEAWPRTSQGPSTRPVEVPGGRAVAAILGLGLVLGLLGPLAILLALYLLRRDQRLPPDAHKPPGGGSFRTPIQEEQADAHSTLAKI
Assay: cell-based or functional assay
PROPERTY_NAME: ADCC % Lysis at 10 µg/ml (%)

112Z5 human anti-human OX40 monoclonal antibody (hybridoma ATCC No. PTA-7216) (antibody, V domains shown) VH: VVSTQSTGGGLVQPGRSLRLSCAASGFTLDDYGMHWVRQAPGKGLEWVSGISWNSDSIGYVDSVKGRFTISRDNAKNSLYLQMNSLRVEDTALYYCVKDISGWYSFDYWGQGTLVTVSS VL: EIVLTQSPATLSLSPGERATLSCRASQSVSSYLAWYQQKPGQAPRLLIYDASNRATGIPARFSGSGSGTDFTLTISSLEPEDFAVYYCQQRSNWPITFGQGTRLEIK | 35
